# study-system: Lethal factor (Bacillus anthracis, UniProt P15917)
# Sequence (P15917 whole entry): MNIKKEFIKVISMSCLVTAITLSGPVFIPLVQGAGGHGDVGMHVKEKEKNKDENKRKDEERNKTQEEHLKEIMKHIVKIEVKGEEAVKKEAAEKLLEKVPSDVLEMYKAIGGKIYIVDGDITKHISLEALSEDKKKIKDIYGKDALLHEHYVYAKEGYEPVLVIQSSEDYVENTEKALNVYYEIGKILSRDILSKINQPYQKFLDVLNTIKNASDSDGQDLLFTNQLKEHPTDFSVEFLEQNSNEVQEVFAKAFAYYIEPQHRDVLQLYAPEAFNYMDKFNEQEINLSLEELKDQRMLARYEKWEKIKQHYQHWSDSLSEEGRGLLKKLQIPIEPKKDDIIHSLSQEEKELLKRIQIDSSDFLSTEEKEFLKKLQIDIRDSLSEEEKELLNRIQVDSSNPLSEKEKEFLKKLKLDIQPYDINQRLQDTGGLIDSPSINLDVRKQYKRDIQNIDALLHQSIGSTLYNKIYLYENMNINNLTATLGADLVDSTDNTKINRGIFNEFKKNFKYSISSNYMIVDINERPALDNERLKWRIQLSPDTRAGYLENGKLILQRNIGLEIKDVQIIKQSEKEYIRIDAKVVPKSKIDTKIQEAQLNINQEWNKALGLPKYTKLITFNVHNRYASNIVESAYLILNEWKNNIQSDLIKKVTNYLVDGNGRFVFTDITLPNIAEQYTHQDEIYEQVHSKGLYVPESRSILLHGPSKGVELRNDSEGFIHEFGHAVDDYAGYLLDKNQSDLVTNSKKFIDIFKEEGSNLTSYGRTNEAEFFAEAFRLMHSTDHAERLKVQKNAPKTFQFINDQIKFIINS
# protocol: Inhibition of Bacillus anthracis lethal factor by fluorescence assay
pKi: −log10 of the molar value.
endpoint-name: pKi

smiles=O=c1oc2c(O)c(O)ccc2c2c1CCC2 endpoint_name=pKi obs_value=6.24

* * *

# study-system: Botulinum neurotoxin type A (Clostridium botulinum)
# Sequence (P0DPI0 2-448 limits assumed): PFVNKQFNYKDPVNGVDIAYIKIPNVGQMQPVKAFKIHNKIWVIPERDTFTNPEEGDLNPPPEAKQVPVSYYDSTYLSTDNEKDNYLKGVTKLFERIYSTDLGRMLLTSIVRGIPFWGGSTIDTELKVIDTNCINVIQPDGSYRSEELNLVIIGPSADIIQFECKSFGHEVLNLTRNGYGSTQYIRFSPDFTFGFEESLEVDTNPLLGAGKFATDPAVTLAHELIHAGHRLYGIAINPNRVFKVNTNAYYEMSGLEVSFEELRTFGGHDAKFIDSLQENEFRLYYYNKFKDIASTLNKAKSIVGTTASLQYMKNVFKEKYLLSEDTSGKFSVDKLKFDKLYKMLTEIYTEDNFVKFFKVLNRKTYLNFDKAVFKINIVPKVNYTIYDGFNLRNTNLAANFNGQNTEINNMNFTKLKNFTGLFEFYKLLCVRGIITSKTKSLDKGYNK
Let's look at some compounds and their measured IC50.
endpoint-name: IC50 (µM)

smiles=COc1ccc(OC)c(CCC(=O)Nc2ccc3nc(C)cc(N)c3c2)c1 endpoint_name=IC50 value_operator=> obs_value=100
smiles=Cc1cc(N)c2cc(NC(=O)c3ccc(-c4cnc5ccccc5c4)cc3)ccc2n1 endpoint_name=IC50 value_operator=> obs_value=100
smiles=Cc1cc(N)c2cc(NC(=O)c3ccc(-c4ccccc4)cc3)ccc2n1 endpoint_name=IC50 value_operator=> obs_value=100
smiles=COc1ccccc1CC(=O)Nc1ccc2nc(C)cc(N)c2c1 endpoint_name=IC50 value_operator=> obs_value=100
smiles=Cc1cc(N)c2cc(NC(=O)c3cccc(-c4cnc5ccccc5c4)c3)ccc2n1 endpoint_name=IC50 value_operator== obs_value=45
smiles=Cc1cc(N)c2cc(NC(=O)Nc3ccc(F)cc3)ccc2n1 endpoint_name=IC50 value_operator== obs_value=32
smiles=Cc1cc(N)c2cc(NC(=O)c3ccco3)ccc2n1 endpoint_name=IC50 value_operator== obs_value=47
smiles=Cc1cc(N)c2cc(NC(=O)Nc3ccc(C(=O)c4ccccc4)cc3)ccc2n1 endpoint_name=IC50 value_operator== obs_value=67
smiles=Cc1cc(N)c2cc(NC(=O)c3ccc(-c4cccc5ncccc45)cc3)ccc2n1 endpoint_name=IC50 value_operator== obs_value=34
smiles=COc1ccncc1CCC(=O)Nc1ccc2nc(C)cc(N)c2c1 endpoint_name=IC50 value_operator=> obs_value=100
smiles=COc1ccccc1CCC(=O)Nc1ccc2nc(C)cc(N)c2c1 endpoint_name=IC50 value_operator=> obs_value=100
